test: Toxicity liver stage against HepG2, at 10uM; assay type: cell-based; parameters: test concentration 10 uM, cell line HepG2-A16-CD81EGFP; conditions: human, HepG2-A16-CD81EGFP cells; read-out: INHIBITION
Exercise: state measured cytotoxicity at 10 µM for each of the compounds provided.
A number alone suffices; assume %.

Note to self: cytotoxicity at 10 µM recorded for O=C1CC2(CCN(S(=O)(=O)C3CC3)C2)CN1c1cncnc1 (centres undefined) was -11.9

Note to self: cytotoxicity at 10 µM recorded for Cn1cccc1C(=O)N1CCC2(CCCN(CC3CC3)C2=O)C1 (centres undefined) was -0.445

Note to self: cytotoxicity at 10 µM recorded for CCCc1nnc(NC2CCN(C3CCSCC3)CC2)o1 was -1.38

Note to self: cytotoxicity at 10 µM recorded for O=C([C@H]1CCCO1)N1CCN(Cc2cccnc2)c2ncccc2C1 was 13.2

Note to self: cytotoxicity at 10 µM recorded for O=C(NCc1cn2c(n1)SCC2)c1cn(CCN2CCCCC2)nn1 was -3.69

Note to self: cytotoxicity at 10 µM recorded for CCc1cnc(C)nc1N1CCS(=O)(=O)CC1 was -43.3

Note to self: cytotoxicity at 10 µM recorded for Nc1cc(-c2cc(O)cc(C(=O)O)c2)c2cc[nH]c2n1 was 6.77

Note to self: cytotoxicity at 10 µM recorded for CC(C)N(C)Cc1cnc2n1CCN(Cc1ccco1)C2 was 2.22

Note to self: cytotoxicity at 10 µM recorded for CC(NCCCN1CCCC1=O)c1ccc(F)cc1N(C)C (centres undefined) was -2.78

Note to self: cytotoxicity at 10 µM recorded for O=C(NCCO)c1coc(CN2CCN(c3ccccc3F)CC2)n1 was -11.2

Note to self: cytotoxicity at 10 µM recorded for CN1CCc2nc3c(c(N)c2C1)CCCN3C was 11.3

Note to self: cytotoxicity at 10 µM recorded for COc1cccc(CNC(=O)c2cc(C)nc(N3CCCC3)n2)c1 was 23.1

Note to self: cytotoxicity at 10 µM recorded for Cn1cnc2cc(C(=O)N3CCC(c4ccccc4C(=O)O)C3)cnc21 (centres undefined) was -8.98

Note to self: cytotoxicity at 10 µM recorded for O=C1CC[C@H]2[C@H](CCN2C(=O)C2CCCO2)N1CCN1CCCC1 (some centres undefined) was -4.66

Note to self: cytotoxicity at 10 µM recorded for CCOCCCC(=O)NCc1cn2cc(Br)ccc2n1 was 2.73

Note to self: cytotoxicity at 10 µM recorded for CCc1noc(CC)c1CNC(=O)Nc1cccc([S+](C)[O-])c1 (centres undefined) was 13.4

Note to self: cytotoxicity at 10 µM recorded for N#Cc1cccc(S(=O)(=O)N2CC(CC(=O)O)c3ccccc32)c1 (centres undefined) was -1.11

Note to self: cytotoxicity at 10 µM recorded for O=C(C1CCCC1)N1CCn2c(nnc2C2CCCNC2)C1 (centres undefined) was 1.19

Note to self: cytotoxicity at 10 µM recorded for Cc1cc(S(=O)(=O)N2CCC(N3CCC(O)C3)CC2)c(Cl)cc1Cl (centres undefined) was 0.944

Note to self: cytotoxicity at 10 µM recorded for CS(=O)(=O)N[C@@H]1CN(C(=O)c2cnccn2)[C@@H]2CCCO[C@@H]21 was -73.4

Note to self: cytotoxicity at 10 µM recorded for CNCC(=O)NC1CC(C)(C)Cc2nc(C(C)(C)C)ncc21 (centres undefined) was 10.2

Note to self: cytotoxicity at 10 µM recorded for CSc1ccc(C2SCC(=O)Nc3c2c(=O)[nH]n3C2CCOCC2)cc1 (centres undefined) was -14.9

Note to self: cytotoxicity at 10 µM recorded for CCCOc1ccc(C(=O)N2CCN3CCNC(=O)C3C2)cc1Cl (centres undefined) was -1.65

Note to self: cytotoxicity at 10 µM recorded for O=C(c1ccncn1)N1CCC[C@]2(C[C@H](OCC3CC3)CO2)C1 was -81.9

Note to self: cytotoxicity at 10 µM recorded for Cc1nccn1CCCNc1nccnc1C#N was -7.21

Note to self: cytotoxicity at 10 µM recorded for COc1ccc(CN2C[C@@H]3CCCO[C@@H]3[C@H](NS(C)(=O)=O)C2)cc1 was -2.83

Note to self: cytotoxicity at 10 µM recorded for NS(=O)(=O)CCNC(=O)C1(c2ccc(Br)cc2)CC1 was -4.69

Note to self: cytotoxicity at 10 µM recorded for NC(=O)C1CCN(c2ncccc2C(=O)N2CCc3ccccc32)C1 (centres undefined) was -5.78

Note to self: cytotoxicity at 10 µM recorded for CCc1nc(CC)n(CC(=O)N(CC)CC)n1 was 3.1
